- ASSAYED SYSTEM: T1, S. purpuratus NCOA N-CID-C (CID with N- and C-terminal flanking regions) (S. purpuratus, UniProt A0A7M7N2F3 1037-1156)
- T1 construct: Gly-Ser remains at the N-terminus after thrombin cleavage; the Uniprot entry W4YZZ7 was withdrawn; annotated in NCBI as neurogenic protein mastermind; also called long version; source: expression construct ordered from Genscript; not shown: 6 His-tagged lipo domain, N-terminal, cleaved
- T1 sequence: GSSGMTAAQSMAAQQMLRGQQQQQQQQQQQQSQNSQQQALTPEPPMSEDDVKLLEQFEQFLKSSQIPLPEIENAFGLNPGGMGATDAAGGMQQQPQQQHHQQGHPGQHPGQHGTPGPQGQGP
- ASSAY INFO: ITC; MicroCal iTC200, 25 °C, 20 mM sodium phosphate pH 7.40, 150 mM NaCl
- CONDITION SUMMARY: both partners purified
ATTRIBUTE MEASURED: pKd
Note on pKd: it is the negative log10 of concentration, concentration in mol/L.

Query :: Requested read-out: pKd. Entry: S. purpuratus NCBD (nuclear coactivator binding domain of CBP), wild type (domain or fragment, Gly-Ser remains at the N-terminus after thrombin cleavage; CBP, S. purpuratus (purple sea urchin), NCBD domain, residues 2316-2374 of Uniprot A0A7M7HNR9; the Trp variant is told only for the stopped-flow experiments; source: expression construct ordered from Genscript; not shown: 6 His-tagged lipo domain, N-terminal, cleaved) GSQRNNAPQQALQQLLQTLKSPHSPQQQKQVLTILKSNPQLMAAFIKQRSEHQQRMQQQQQ
Result :: 5.10

Where these numbers come from: paper PMC10515491
